System: recombinant eIF4E (Homo sapiens (Human), UniProt P06730)
Sequence (P06730 whole entry): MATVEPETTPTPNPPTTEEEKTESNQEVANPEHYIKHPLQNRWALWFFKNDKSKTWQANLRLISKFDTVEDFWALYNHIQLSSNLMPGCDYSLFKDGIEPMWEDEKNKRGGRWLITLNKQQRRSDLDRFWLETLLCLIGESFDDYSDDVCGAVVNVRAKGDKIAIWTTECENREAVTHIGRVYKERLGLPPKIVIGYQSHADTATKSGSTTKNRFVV
Run description: Fluorescence polarization competition assay for eIF4E binding potency
Condition notes: inhibition of eIF4E/EDA-m7GDP-ATTO-550 binding by 50%; Table 4B calculated values; read-out: IC50
Listed below: pIC50 values for each entry.
When answering, recall that pIC50 equals minus log10 of the concentration in mol/L, and write that number alone.

>  <Compound>
Cc1cc(-c2cc(Cl)ccc2OCCn2c(C)nc3cc(C(F)(F)F)c(-c4cncc(F)c4)c(C#N)c3c2=O)c2scc(C(=O)O)c2n1

>  <Measured attribute>
pIC50

>  <Result>
7.32

$$$$
>  <Compound>
Cc1c(C(F)(F)F)cc(C#N)c2c(=O)n(CCOc3ccc(Cl)cc3-c3ccnc4c(C(=O)O)csc34)c(C)nc12

>  <Measured attribute>
pIC50

>  <Result>
7.64

$$$$
>  <Compound>
Cc1nc2ccc(OC(F)F)c(C#N)c2c(=O)n1CCOc1ccc(Cl)cc1-c1ccnc2c(C(=O)O)csc12

>  <Measured attribute>
pIC50

>  <Result>
7.69

$$$$

Task: Could you please provide reported pIC50 for CO[C@H]1C[C@@H](c2ncc3nc(C)n(CCOc4ccc(Cl)cc4-c4cc(C)nc5c(C(=O)O)csc45)c(=O)c3c2C#N)C1 ? Thanks!
Result: 8.42

Task: # return recorded pIC50 for input Cc1nc2cc(C(F)(F)F)cc(C#N)c2c(=O)n1CCOc1cnc(C#N)cc1-c1ccnc2c(C(=O)O)csc12
Result: 7.00

Task: Quick one: give measured pIC50 for Cc1cc(-c2cc(Cl)ccc2OCCn2c(C)nc3c(F)cc(CCN(C)C)c(C#N)c3c2=O)c2scc(C(=O)O)c2n1
Result: 7.73

Task: Entry Cc1nc2ccc(CCN(C)C)c(C#N)c2c(=O)n1CCOc1ccc(Cl)cc1-c1ccnc2c(C(=O)O)csc12 needs its pIC50 filled in; supply it.
Result: 7.31

###

# IC50 per entry
System: recombinant eIF4E (Homo sapiens (Human))
Run description: Fluorescence polarization competition assay for eIF4E binding potency
Condition notes: inhibition of eIF4E/EDA-m7GDP-ATTO-550 binding by 50%; Table 4B calculated values; read-out: IC50
Only the number, expressed in nM, is required.

>  <Smiles data>
C=C1c2c(C#N)cc(C(F)(F)F)cc2N=C(C)N1CCOc1ccc(Cl)cc1-c1cc(CCO)nc2c(C(=O)O)csc12

>  <System>
recombinant eIF4E (Homo sapiens (Human))

>  <Units text>
nM

>  <IC50>
24.8

$$$$
>  <Smiles data>
COCC(F)(F)CN1CCC(N(C)c2ncc3nc(C)n(CC#Cc4ccc(Cl)cc4-c4ccnc5c(C(=O)O)csc45)c(=O)c3c2C#N)CC1

>  <System>
recombinant eIF4E (Homo sapiens (Human))

>  <Units text>
nM

>  <IC50>
17

$$$$

Task: Answer with reported IC50 of Cc1cc(-c2cc(Cl)ccc2OCCn2c(C)nc3cnc(-c4cccc(C(F)(F)F)c4)c(C#N)c3c2=O)c2scc(C(=O)O)c2n1
Result: 43.6

###

Recorded pIC50 by entry
System: recombinant eIF4E (Homo sapiens (Human))
Run description: Fluorescence polarization competition assay for eIF4E binding potency
Condition notes: inhibition of eIF4E/EDA-m7GDP-ATTO-550 binding; calculated IC50 values, Table 4B; read-out: IC50
Here pIC50 is given on a logarithmic scale as minus log10 of the concentration in mol/L.

Task: Quote pIC50 reported for Cc1nc2cnc(N(C)C3CCN(CC(F)(F)F)CC3)c(C#N)c2c(=O)n1CC#Cc1ccc(Cl)cc1-c1ccnc2c(C(=O)NS(=O)(=O)CC(F)(F)F)csc12 please.
Result: 7.21

Task: Fill in pIC50 for record Cc1nc2cnc(N(C)C3CCN([C@H]4C[C@H](F)C4)CC3)c(C#N)c2c(=O)n1CC#Cc1ccc(Cl)cc1-c1ccnc2c(C(=O)NS(=O)(=O)c3cccnc3)csc12
Result: 8.03

Task: // fetch pIC50 given entry Cc1nc2cnc(N(C)C3CCN(CC4CC(OC(F)F)C4)CC3)c(C#N)c2c(=O)n1CC#Cc1ccc(Cl)cc1-c1ccnc2c(C(=O)O)csc12 (stereo not drawn)
Result: 7.87

Task: Report pIC50, nothing else, for this molecule: Cc1nc2cnc(N(C)C3CCN(CC(C)(C)F)CC3)c(C#N)c2c(=O)n1CCOc1ccc(Cl)cc1-c1ccnc2c(C(=O)O)csc12
Result: 7.87

Task: For the molecule Cc1nc2cnc(N(C)C3CCN(CC(F)(F)F)CC3)c(C#N)c2c(=O)n1CC#Cc1ccc(Cl)cc1-c1ccnc2c(C(=O)NS(=O)(=O)CCC#N)csc12 , report pIC50.
Result: 8.38

Task: Give pIC50 for Cc1nc2cnc(N3CCC4(CC3)CN(CC(F)F)C4)c(C#N)c2c(=O)n1CC#Cc1ccc(Cl)cc1-c1ccnc2c(C(=O)NS(=O)(=O)C3COC3)csc12
Result: 7.75

Task: Indicate the recorded pIC50 value for this molecule: COCCN1CCN(c2c(C(F)(F)F)cc3nc(C)n(CCOc4ccc(Cl)cc4-c4ccnc5c(C(=O)O)csc45)c(=O)c3c2C#N)CC1
Result: 8.26

Task: Give the value of pIC50 reported for the following: Cc1nc2cnc(N3CCN([C@H]4C[C@@H]4C(F)(F)F)CC3)c(C#N)c2c(=O)n1CCOc1ccc(Cl)cc1-c1ccnc2c(C(=O)O)csc12
Result: 7.61

###

# reported IC50; entries follow
System: recombinant eIF4E (Homo sapiens (Human))
Run description: Fluorescence polarization competition assay for eIF4E binding potency
Condition notes: fluorescence polarization competition, 75 nM recombinant eIF4E, 20 nM EDA-m7GDP-ATTO-550; IC50 class; read-out: elF4E FP

# annotated cases, reported IC50 shown
>  <Compound>
Cc1nc2cnc(N(C)C3CCN(C4CC(F)C4)CC3)c(C#N)c2c(=O)n1CC#Cc1ccc(Cl)cc1-c1ccnc2c(C(=O)O)csc12 (stereo not drawn)

>  <IC50>
< 50 nM

$$$$
>  <Compound>
Cc1ccc(-c2cc(Cl)ccc2OCCn2c(C)nc3cc(C(F)(F)F)c(N4CCN(C)CC4)c(C#N)c3c2=O)c2scc(C(=O)O)c12

>  <IC50>
< 50 nM

$$$$
>  <Compound>
Cc1cc(-c2cc(Cl)ccc2OCCn2c(C)nc3cc(Cl)c(C4CCC4)c(C#N)c3c2=O)c2scc(C(=O)O)c2n1

>  <IC50>
< 50 nM

$$$$
>  <Compound>
Cc1cc(-c2cc(Cl)ccc2OCCn2c(C)nc3cc(C(F)(F)F)c(N4CCC(C)(C)CC4)nc3c2=O)c2scc(C(=O)O)c2n1

>  <IC50>
< 50 nM

$$$$
>  <Compound>
Cc1cc(-c2cc(Cl)ccc2OCCn2c(C)nc3cnc(N4CC5CCC(C4)N5C)c(C#N)c3c2=O)c2sc(C)c(C(=O)O)c2n1

>  <IC50>
< 50 nM

$$$$

// next entry
Task: Specify reported IC50 for the compound shown: Cc1cc(-c2cc(Cl)ccc2OCCn2c(C)nc3c(C)nc(C(F)(F)F)c(C#N)c3c2=O)c2scc(C(=O)O)c2n1
Result: 50 to 1000 nM

###

System: recombinant eIF4E (Homo sapiens (Human))
Run description: Fluorescence polarization competition assay for eIF4E binding potency
Condition notes: fluorescence polarization competition, 75 nM recombinant eIF4E, 20 nM EDA-m7GDP-ATTO-550; IC50 class; read-out: elF4E FP
Overview of recorded IC50 for various molecules

Some molecules with known IC50 results, for comparison:
>  <Molecule>
Cc1nc2ccc(CCN(C)C)c(C#N)c2c(=O)n1CCOc1ccc(Cl)cc1-c1ccnc2c(C(=O)O)csc12 [compound 507]

>  <IC50>
< 50 nM

$$$$
>  <Molecule>
Cc1cc(-c2cc(Cl)ccc2OCCn2c(C)nc3c(C)nc(C(F)F)c(C#N)c3c2=O)c2scc(C(=O)O)c2n1 [compound 728]

>  <IC50>
< 50 nM

$$$$
>  <Molecule>
Cc1nc2cnc(N(C)C3CCCCC3)c(C#N)c2c(=O)n1CC#Cc1ccc(Cl)cc1-c1ccnc2c(C(=O)O)csc12 [compound 1120]

>  <IC50>
< 50 nM

$$$$
>  <Molecule>
Cc1nc2cc(C(F)(F)F)cc(C#N)c2c(=O)n1C/C=C/c1ccc(Cl)cc1-c1cccc(C(=O)O)c1 [compound 145]

>  <IC50>
50 to 1000 nM

$$$$
>  <Molecule>
Cc1nc2cnc(N3CCN(CC4(F)CC4)CC3)c(C#N)c2c(=O)n1CC#Cc1ccc(Cl)cc1-c1ccnc2c(C(=O)O)csc12 [compound 1167]

>  <IC50>
< 50 nM

$$$$

Okay, now this molecule:
Task: Recall and state the measured IC50 for Cc1cnc(C)c(-c2c(C(F)(F)F)cc3nc(C)n(CCOc4ccc(Cl)cc4-c4cc(C)nc5c(C(=O)O)csc45)c(=O)c3c2C#N)n1 [compound 968] .
Result: < 50 nM
